Just for reference, BindingDB's records for doi:10.1021/jm950700s is where these values come from.

Target: UniProtKB P19156
Sequence (P19156 whole entry, looked up): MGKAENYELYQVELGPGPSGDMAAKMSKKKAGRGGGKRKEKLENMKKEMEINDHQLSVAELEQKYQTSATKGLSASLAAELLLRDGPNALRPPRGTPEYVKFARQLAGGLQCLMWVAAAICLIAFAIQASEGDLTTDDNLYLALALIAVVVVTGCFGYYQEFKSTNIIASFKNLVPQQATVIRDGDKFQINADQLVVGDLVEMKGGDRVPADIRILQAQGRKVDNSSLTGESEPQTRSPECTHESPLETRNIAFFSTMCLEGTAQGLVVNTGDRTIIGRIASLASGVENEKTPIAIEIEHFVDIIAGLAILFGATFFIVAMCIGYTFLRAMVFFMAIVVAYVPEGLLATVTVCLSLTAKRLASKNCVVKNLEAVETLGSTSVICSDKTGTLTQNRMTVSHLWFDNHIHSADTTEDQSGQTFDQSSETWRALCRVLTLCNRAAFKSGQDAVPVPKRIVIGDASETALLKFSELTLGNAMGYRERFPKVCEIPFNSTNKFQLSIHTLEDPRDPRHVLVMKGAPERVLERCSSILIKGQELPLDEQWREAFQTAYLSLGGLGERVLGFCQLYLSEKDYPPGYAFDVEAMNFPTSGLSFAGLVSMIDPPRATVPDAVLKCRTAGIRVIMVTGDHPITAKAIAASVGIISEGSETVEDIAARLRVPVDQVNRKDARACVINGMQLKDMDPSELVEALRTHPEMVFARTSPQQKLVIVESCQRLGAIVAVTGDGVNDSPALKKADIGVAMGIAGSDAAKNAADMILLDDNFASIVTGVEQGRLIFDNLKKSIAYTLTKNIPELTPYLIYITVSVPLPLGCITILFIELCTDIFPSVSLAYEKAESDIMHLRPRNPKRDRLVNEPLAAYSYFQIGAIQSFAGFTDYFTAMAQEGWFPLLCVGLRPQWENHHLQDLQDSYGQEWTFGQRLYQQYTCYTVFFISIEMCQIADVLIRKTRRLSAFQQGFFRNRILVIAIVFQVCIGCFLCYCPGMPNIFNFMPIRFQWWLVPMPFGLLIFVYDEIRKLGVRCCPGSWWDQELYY
quantity: IC50 (µM)
// note: answer is a bare numeric in µM

{"smilesRecord": "Cc1nc2c(C/C=C/c3ccccc3)cccn2c1CC#N", "quantity": "IC50", "assayResult": 206}

API: the following record is the query input.
Request: Fetch value of IC50 on UniProtKB P19156 for Cc1nc2c(OCc3ccccc3)nccn2c1N .
Response: 178
